assayTarget: UniProt:P03372
Sequence (whole entry): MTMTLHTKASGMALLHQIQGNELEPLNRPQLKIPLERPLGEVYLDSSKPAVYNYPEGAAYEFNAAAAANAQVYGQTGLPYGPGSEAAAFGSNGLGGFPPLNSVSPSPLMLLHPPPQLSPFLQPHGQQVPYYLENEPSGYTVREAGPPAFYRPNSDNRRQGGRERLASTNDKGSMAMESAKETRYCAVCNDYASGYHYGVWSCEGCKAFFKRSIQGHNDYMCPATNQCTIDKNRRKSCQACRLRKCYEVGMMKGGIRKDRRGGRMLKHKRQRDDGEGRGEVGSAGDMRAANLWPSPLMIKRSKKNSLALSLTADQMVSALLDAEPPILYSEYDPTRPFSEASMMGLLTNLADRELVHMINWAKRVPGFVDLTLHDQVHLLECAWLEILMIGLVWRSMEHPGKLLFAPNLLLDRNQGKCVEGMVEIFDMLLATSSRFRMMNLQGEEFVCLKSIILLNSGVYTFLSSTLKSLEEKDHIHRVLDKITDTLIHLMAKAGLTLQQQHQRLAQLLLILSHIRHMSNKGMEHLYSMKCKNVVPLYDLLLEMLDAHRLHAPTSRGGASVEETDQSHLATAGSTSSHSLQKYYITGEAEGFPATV
measurementProtocol: Induction of ERalpha degradation in human MCF7 cells in phenol red free RPMI medium containing 5% charcoal-stripped FBS incubated for 4 hrs by IRDye 800CW/DRAQ5 dye based in-cell Western assay relative to fulvestrant
Returns one of true (1) or false (0); true (1) when Efficacy is >= 90%.

Observe how each entry below is paired with its result.
# querySmiles, assayTarget, labelValue
data = [
    ("O=C(O)/C=C/c1ccc(/C(=C(\\c2ncc(C(F)(F)F)cc2Cl)C2CCC2)c2ccc(-c3cn[nH]c3)cc2)cc1", "UniProt:P03372", "true (1)"),
    ("O=C(O)/C=C/c1ccc(/C(=C(\\c2ncc(C(F)(F)F)cc2Cl)C2CCC2)c2ccc(-c3cncs3)cc2)cc1", "UniProt:P03372", "true (1)"),
]

[in] Hi, just wondering whether "N#Cc1ccc(/C(=C(\c2ccc(/C=C/C(=O)O)cc2)c2ccc(-c3cncs3)cc2)C2CCC2)c(Cl)c1" shows Efficacy of 90% or higher.
[out] true (1)

[in] Hi, just wondering whether "CC/C(=C(/c1ccc(/C=C/C(=O)O)cc1)c1ccc2c(cnn2C)c1)c1ccc(F)cc1Cl" shows Efficacy of 90% or higher.
[out] false (0)

[in] Hi, just wondering whether "O=C(O)/C=C/c1ccc(/C(=C(\c2ccc(C(F)(F)F)cc2Cl)C2CCC2)c2ccc(-c3cn[nH]c3)cc2)cc1" shows Efficacy of 90% or higher.
[out] true (1)

* * *

assayTarget: Estrogen receptor (Homo sapiens, UniProt P03372)
Sequence (P03372 whole entry): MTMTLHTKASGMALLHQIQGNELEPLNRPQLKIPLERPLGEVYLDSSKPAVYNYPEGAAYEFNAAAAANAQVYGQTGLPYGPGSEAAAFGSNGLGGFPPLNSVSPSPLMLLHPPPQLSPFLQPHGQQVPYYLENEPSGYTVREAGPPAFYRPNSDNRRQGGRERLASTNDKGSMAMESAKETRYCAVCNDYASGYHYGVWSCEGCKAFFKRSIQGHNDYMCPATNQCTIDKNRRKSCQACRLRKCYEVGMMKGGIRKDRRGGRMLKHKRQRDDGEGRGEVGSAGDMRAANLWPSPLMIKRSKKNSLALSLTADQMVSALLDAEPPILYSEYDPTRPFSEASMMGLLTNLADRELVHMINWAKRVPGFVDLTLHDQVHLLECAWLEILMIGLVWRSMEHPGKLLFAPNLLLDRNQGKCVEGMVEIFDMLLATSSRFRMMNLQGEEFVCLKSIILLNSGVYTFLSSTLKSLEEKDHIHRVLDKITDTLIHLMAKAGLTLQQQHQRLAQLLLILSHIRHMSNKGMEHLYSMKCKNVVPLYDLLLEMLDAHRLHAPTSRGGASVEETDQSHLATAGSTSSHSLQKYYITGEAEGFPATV
measurementProtocol: Induction of ERalpha degradation in human MCF7 cells in phenol red free RPMI medium containing 5% charcoal-stripped FBS incubated for 4 hrs by IRDye 800CW/DRAQ5 dye based in-cell Western assay
pEC50: −log10 of the molar value.
Grouping by measured pEC50 is done with the following cut points: class A = under 7, class B = from 7 up to 8, class C = 8 and over

[in] Textbook exercise: identify the category of the compound given here, "O=C(O)/C=C/c1ccc(/C(=C(\c2ncc(C(F)(F)F)cc2Cl)C2CCC2)c2ccc(N3CCOCC3)cc2)cc1" , according to its measured value.
[out] class C

[in] Textbook exercise: identify the category of the compound given here, "CC/C(=C(/c1ccc(/C=C/C(=O)O)cc1)c1ccc(N2CCOCC2)cc1)c1ccccc1" , according to its measured value.
[out] class B

[in] Textbook exercise: identify the category of the compound given here, "CC/C(=C(/c1ccc(/C=C/C(=O)O)cc1)c1ccc2ncsc2c1)c1ccccc1" , according to its measured value.
[out] class A

[in] Textbook exercise: identify the category of the compound given here, "CC/C(=C(/c1ccc(/C=C/C(=O)O)cc1)c1ccc(-c2cnsc2)cc1)c1ccccc1" , according to its measured value.
[out] class B

[in] Textbook exercise: identify the category of the compound given here, "N#Cc1cc(Cl)ccc1/C(=C(\c1ccc(/C=C/C(=O)O)cc1)c1ccc(-c2cncs2)cc1)C1CCC1" , according to its measured value.
[out] class C
